Provide the recorded viability, T/C for the entries that follow.
tested on: 743489-274-T-PDC complex spheroid viability; assay: Anticancer human tumor 743489-274-T-PDC patient-derived renal cell carcinoma cell line growth inhibition; details: second compound 3.16 µM; first compound 0.03 µM; stronger effect = lower value
Answers are plain numbers, in %.

Past entries and their recorded results:
>>> reported_result("O=C(C=Cc1cccc(S(=O)(=O)Nc2ccccc2)c1)NO + NC1CC1c1ccc(-c2cccc(O)c2)cc1")
88.1
>>> reported_result("Nc1ncn(C2CC(O)C(CO)S2)c(=O)n1 (configuration not stated) + NC1CC1c1ccc(-c2cccc(O)c2)cc1")
78.5
>>> reported_result("O=C(C=Cc1cccc(S(=O)(=O)Nc2ccccc2)c1)NO + NC1CCC(NC2CC2c2ccccc2)CC1")
105
>>> reported_result("NS(=O)(=O)OCC1CC(n2ccc3c(NC4CCc5ccccc54)ncnc32)CC1O (configuration not stated) + NC1CC1c1ccc(-c2cccc(O)c2)cc1")
104
>>> reported_result("Nc1ccn(C2OC(CO)C(O)C2(F)F)c(=O)n1 (configuration not stated) + NC1CC1c1ccc(-c2cccc(O)c2)cc1")
46.3
>>> reported_result("COc1cc(C2c3cc4c(cc3C(OC3OC5COC(C)OC5C(O)C3O)C3COC(=O)C23)OCO4)cc(OC)c1O (configuration not stated) + NC1CC1c1ccc(-c2cccc(O)c2)cc1")
95.2

Let us examine a further case.
Q: Recorded viability, T/C of CCc1c2c(nc3ccc(O)cc13)-c1cc3c(c(=O)n1C2)COC(=O)[C@]3(O)CC + NC1CC1c1ccc(-c2cccc(O)c2)cc1 , please.
Ans: 33.5

* * *

system: 743489-274-T-PDC complex spheroid viability; test: Anticancer human tumor 743489-274-T-PDC cell line growth inhibition; details: second compound 1 µM; first compound 3 µM; stronger effect = lower value;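 further: spheroids exposed to compounds for 7 days before readout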;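 on viability, T/C: 100% = DMSO vehicle control wells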
For each of the compounds below, state its viability, T/C.
One number for each entry, in %.

As a guide, the following entries are already answered.
>>> reported_result("CCN(c1cc(-c2ccc(CN3CCOCC3)cc2)cc(C(=O)NCc2c(C)cc(C)[nH]c2=O)c1C)C1CCOCC1 + NC1CCC(NC2CC2c2ccccc2)CC1")
106
>>> reported_result("Nc1ccccc1NC(=O)c1ccc(CNC(=O)OCc2cccnc2)cc1 + NC1CC1c1ccc(-c2cccc(O)c2)cc1")
24.6
>>> reported_result("NS(=O)(=O)OCC1CC(n2ccc3c(NC4CCc5ccccc54)ncnc32)CC1O (configuration not stated) + NC1CCC(NC2CC2c2ccccc2)CC1")
121
>>> reported_result("COc1cc(C2c3cc4c(cc3C(OC3OC5COC(C)OC5C(O)C3O)C3COC(=O)C23)OCO4)cc(OC)c1O (configuration not stated) + NC1CC1c1ccc(-c2cccc(O)c2)cc1")
76.5
>>> reported_result("NS(=O)(=O)OCC1CC(n2ccc3c(NC4CCc5ccccc54)ncnc32)CC1O (configuration not stated) + NC1CC1c1ccc(-c2cccc(O)c2)cc1")
137
>>> reported_result("O=C(C=Cc1cccc(S(=O)(=O)Nc2ccccc2)c1)NO + NC1CC1c1ccc(-c2cccc(O)c2)cc1")
35.9

Q: Which viability, T/C reading was recorded for the compound Nc1ccccc1NC(=O)c1ccc(CNC(=O)OCc2cccnc2)cc1 + NC1CCC(NC2CC2c2ccccc2)CC1 ?
Ans: 36.2

* * *

tested on: 743489-274-T-PDC complex spheroid viability; experiment: Anticancer human tumor 743489-274-T-PDC cell line growth inhibition; details: second compound 10 µM; first compound 0.3 µM; stronger effect = lower value;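 further: spheroids exposed to compounds for 7 days before readout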;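 on viability, T/C: 100% = DMSO vehicle control wells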
Record form. Attribute: viability, T/C. Fill in for each entry.
Give bare numbers, in %.

>>> reported_result("CCN(c1cc(-c2ccc(CN3CCOCC3)cc2)cc(C(=O)NCc2c(C)cc(C)[nH]c2=O)c1C)C1CCOCC1 + NC1CCC(NC2CC2c2ccccc2)CC1")
95.7
>>> reported_result("Nc1ccn(C2OC(CO)C(O)C2(F)F)c(=O)n1 (stereo not drawn) + NC1CC1c1ccc(-c2cccc(O)c2)cc1")
44.9
>>> reported_result("NS(=O)(=O)OCC1CC(n2ccc3c(NC4CCc5ccccc54)ncnc32)CC1O (stereo not drawn) + NC1CC1c1ccc(-c2cccc(O)c2)cc1")
153
>>> reported_result("Nc1ccccc1NC(=O)c1ccc(CNC(=O)OCc2cccnc2)cc1 + NC1CCC(NC2CC2c2ccccc2)CC1")
79.8
>>> reported_result("Nc1ccn(C2OC(CO)C(O)C2(F)F)c(=O)n1 (stereo not drawn) + NC1CCC(NC2CC2c2ccccc2)CC1")
80.5

Batch: viability, T/C for all items listed.
1. Nc1ncn(C2CC(O)C(CO)S2)c(=O)n1 (stereo not drawn) + NC1CCC(NC2CC2c2ccccc2)CC1
2. NS(=O)(=O)OCC1CC(n2ccc3c(NC4CCc5ccccc54)ncnc32)CC1O (stereo not drawn) + NC1CCC(NC2CC2c2ccccc2)CC1
3. CCN(c1cc(-c2ccc(CN3CCOCC3)cc2)cc(C(=O)NCc2c(C)cc(C)[nH]c2=O)c1C)C1CCOCC1 + NC1CC1c1ccc(-c2cccc(O)c2)cc1

Ans:
[98, 135, 101]

* * *

Can you tell me IC50 for the items I'm about to list?
system: 743489-274-T-PDC complex spheroid viability; experiment: Anticancer human tumor 743489-274-T-PDC cell line growth inhibition; details: curve of first compound; second compound 10 µM;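 further: spheroids exposed to compounds for 7 days before readout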
One number for each entry, in µM.

Below: 2 molecules and their reported IC50.
>>> reported_result("COc1ccc([C@@H](O)c2cc(-c3ncnc4cc(N5CCOCC5)ccc34)c(F)cc2Cl)nn1 + NC1CCC(NC2CC2c2ccccc2)CC1")
1.9
>>> reported_result("O=C(C=Cc1cccc(S(=O)(=O)Nc2ccccc2)c1)NO + NC1CCC(NC2CC2c2ccccc2)CC1")
1.91

Next up:
Q: Item under review: CCc1c2c(nc3ccc(O)cc13)-c1cc3c(c(=O)n1C2)COC(=O)[C@]3(O)CC + NC1CC1c1ccc(-c2cccc(O)c2)cc1 . Reported IC50?
Ans: 0.00352

* * *

Give measured viability, T/C for each item. Keep answers brief.
tested on: 743489-274-T-PDC complex spheroid viability; assay: Anticancer human tumor 743489-274-T-PDC cell line growth inhibition; conditions: second compound 0.1 µM; first compound 0.00949 µM; stronger effect = lower value;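 further: spheroids exposed to compounds for 7 days before readout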;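 on viability, T/C: 100% = DMSO vehicle control wells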
One number for each entry, in %.

Reference set, count: 5
>>> reported_result("CCc1c2c(nc3ccc(O)cc13)-c1cc3c(c(=O)n1C2)COC(=O)[C@]3(O)CC + NC1CCC(NC2CC2c2ccccc2)CC1")
62.7
>>> reported_result("O=C(C=Cc1cccc(S(=O)(=O)Nc2ccccc2)c1)NO + NC1CC1c1ccc(-c2cccc(O)c2)cc1")
107
>>> reported_result("Nc1ccccc1NC(=O)c1ccc(CNC(=O)OCc2cccnc2)cc1 + NC1CCC(NC2CC2c2ccccc2)CC1")
96.2
>>> reported_result("CCN(c1cc(-c2ccc(CN3CCOCC3)cc2)cc(C(=O)NCc2c(C)cc(C)[nH]c2=O)c1C)C1CCOCC1 + NC1CC1c1ccc(-c2cccc(O)c2)cc1")
104
>>> reported_result("Nc1ccccc1NC(=O)c1ccc(CNC(=O)OCc2cccnc2)cc1 + NC1CC1c1ccc(-c2cccc(O)c2)cc1")
93.2

For every item below, please supply its viability, T/C.
1. COc1cc(C2c3cc4c(cc3C(OC3OC5COC(C)OC5C(O)C3O)C3COC(=O)C23)OCO4)cc(OC)c1O (stereo unspecified) + NC1CC1c1ccc(-c2cccc(O)c2)cc1
2. NS(=O)(=O)OCC1CC(n2ccc3c(NC4CCc5ccccc54)ncnc32)CC1O (stereo unspecified) + NC1CC1c1ccc(-c2cccc(O)c2)cc1
3. Nc1ccn(C2OC(CO)C(O)C2(F)F)c(=O)n1 (stereo unspecified) + NC1CCC(NC2CC2c2ccccc2)CC1
4. Nc1ncn(C2CC(O)C(CO)S2)c(=O)n1 (stereo unspecified) + NC1CC1c1ccc(-c2cccc(O)c2)cc1
5. Nc1ccn(C2OC(CO)C(O)C2(F)F)c(=O)n1 (stereo unspecified) + NC1CC1c1ccc(-c2cccc(O)c2)cc1

Ans:
1. 107
2. 98
3. 71.5
4. 105
5. 95.2

Record viability, T/C per entry; entries follow.
1. O=C(C=Cc1cccc(S(=O)(=O)Nc2ccccc2)c1)NO + NC1CCC(NC2CC2c2ccccc2)CC1
2. CCc1c2c(nc3ccc(O)cc13)-c1cc3c(c(=O)n1C2)COC(=O)[C@]3(O)CC + NC1CC1c1ccc(-c2cccc(O)c2)cc1

Ans:
103
47.3

For the 4 compounds below, give their viability, T/C values.
1. CCN(c1cc(-c2ccc(CN3CCOCC3)cc2)cc(C(=O)NCc2c(C)cc(C)[nH]c2=O)c1C)C1CCOCC1 + NC1CCC(NC2CC2c2ccccc2)CC1
2. COc1cc(C2c3cc4c(cc3C(OC3OC5COC(C)OC5C(O)C3O)C3COC(=O)C23)OCO4)cc(OC)c1O (stereo unspecified) + NC1CCC(NC2CC2c2ccccc2)CC1
3. Nc1ncn(C2CC(O)C(CO)S2)c(=O)n1 (stereo unspecified) + NC1CCC(NC2CC2c2ccccc2)CC1
4. NS(=O)(=O)OCC1CC(n2ccc3c(NC4CCc5ccccc54)ncnc32)CC1O (stereo unspecified) + NC1CCC(NC2CC2c2ccccc2)CC1

Ans:
1: 104; 2: 108; 3: 104; 4: 98.6
